OBSERVATION_TYPE: melting point (°C)
Please state the figure in °C; there is no need to write the unit.

Please review the following examples before continuing.
COc1cc(C2C(C#N)=C(N)Oc3c(N)cc4ccccc4c32)cc(OC)c1OC (centres unmarked) ... 225
N#CC1=C(N)Oc2c(ccc3c(N)cccc23)C1c1cccs1 (centres unmarked) ... 232
N#CC1=C(N)Oc2c(ccc3c(N)cccc23)C1c1c(F)cc(F)cc1F (centres unmarked) ... 235
COc1ccc(N=Nc2cc3c(cc2O)OC(N)=C(C#N)C3c2ccc(F)cc2)cc1 (centres unmarked) [13b] ... 272

Read the next record carefully.
Ask: Query (molecule): N#CC1=C(N)Oc2c(N)cc3ccccc3c2C1c1ccc(Cl)cc1Cl (centres unmarked) ; field requested: melting point
Result: 278

----------
System: Geotricum candidum (RCMB 05097)
Experiment: Well diffusion assay (inhibition zone)
Type: cell-based
Conditions: 5 mg/mL in DMSO; fungi; read-out: Inhibition Zone (IZ) diameter, G.C
OBSERVATION_TYPE: zone of inhibition at 5000 µg/mL (mm)
Hi! Could you send only the number? It should be in mm, unit omitted.

Solved cases (3 shown):
CC(C)(C)c1ccc(C2C(C#N)=C(N)Oc3c2ccc2c(N)cccc32)cc1 (stereo not shown) ... 15.8
N#CC1=C(N)Oc2c(ccc3c(N)cccc23)C1c1cccs1 (stereo not shown) ... 16.9
N#CC1=C(N)Oc2cc(O)c(N=Nc3ccc(C(=O)O)cc3)cc2C1c1ccccc1F (stereo not shown) [13e] ... 21.8

Attention now shifts to the item below.
Ask: I'd like to know its zone of inhibition at 5000 µg/mL. The compound in question is N#CC1=C(N)Oc2cc(O)c(N=Nc3ccc(O)cc3)cc2C1c1ccccc1F (stereo not shown) [13j]
Result: 21.2

----------
Entry flag: True if melting point reaches 200 °C; False if it does not.

Cc1ccc(C2C(C#N)=C(N)Oc3c(N)cc4ccccc4c32)cc1 (stereo not shown) ... False
N#CC1=C(N)Oc2c(N)cc3ccccc3c2C1c1ccc(F)cc1 (stereo not shown) ... False
N#CC1=C(N)Oc2c(N)cc3ccccc3c2C1c1ccsc1 (stereo not shown) ... True
N#CC1=C(N)Oc2cc(O)c(N=Nc3cccc(O)c3)cc2C1c1ccccc1F (stereo not shown) [13k] ... True
N#CC1=C(N)Oc2cc(O)c(N=Nc3ccc(O)cc3)cc2C1c1ccccc1F (stereo not shown) [13j] ... True

Ask: Please indicate if the recorded melting point for CCCCc1ccc(C2C(C#N)=C(N)Oc3cc(O)c(N=Nc4ccc(S(=O)(=O)O)cc4)cc32)cc1 (stereo not shown) [13h] meets or exceeds 200 °C.
Result: True

Ask: Decide: is the reported value of melting point for CC(C)(C)c1ccc(C2C(C#N)=C(N)Oc3cc(O)c(N=Nc4ccc(O)cc4)cc32)cc1 (stereo not shown) [13i] equal to or greater than 200 °C?
Result: True

Ask: Could you verify whether the entry N#CC1=C(N)Oc2c(N)cc3ccccc3c2C1c1ccc(Cl)cc1 (stereo not shown) shows melting point of no less than 200 °C?
Result: False

----------
Attribute: zone of inhibition at 5000 µg/mL
Tested on: Geotricum candidum (RCMB 05097)
Assay: Well diffusion assay (inhibition zone)
Format: cell-based
Conditions: 5 mg/mL in DMSO; fungi; read-out: Inhibition Zone (IZ) diameter, G.C
Put your answer as a value accompanied by its unit after it.

Examples with answers:
Nc1cccc2c(O)cccc12 ... 19.5 mm
N#CC1=C(N)Oc2cc(O)c(N=Nc3ccc(S(=O)(=O)O)cc3)cc2C1c1ccccc1F (stereo not shown) [13f] ... 13.4 mm

Ask: Which measured zone of inhibition at 5000 µg/mL value corresponds to CCCCc1ccc(C2C(C#N)=C(N)Oc3cc(O)c(N=Nc4ccc(S(=O)(=O)O)cc4)cc32)cc1 (stereo not shown) [13h] ?
Result: 15.8 mm

Ask: // zone of inhibition at 5000 µg/mL lookup, key: COc1ccc(C2C(C#N)=C(N)Oc3c2ccc2c(N)cccc32)cc1 (stereo not shown)
Result: 22.6 mm

Ask: # query: zone of inhibition at 5000 µg/mL of entry CC(C)(C)c1ccc(C2C(C#N)=C(N)Oc3cc(O)c(N=Nc4ccc(S(=O)(=O)O)cc4)cc32)cc1 (stereo not shown) [13g]
Result: 17.1 mm

Ask: Look up zone of inhibition at 5000 µg/mL: O=[N+]([O-])c1ccc(N=Nc2ccc(O)cc2O)cc1 [12c, 4-(4-Nitro-phenylazo)-benzene-1,3-diol]
Result: 17.9 mm

Ask: Which zone of inhibition at 5000 µg/mL is reported for this compound? CC(C)(C)c1ccc(C2C(C#N)=C(N)Oc3cc(O)c(N=Nc4ccc(O)cc4)cc32)cc1 (stereo not shown) [13i]
Result: 20.3 mm

Ask: Form field: reported zone of inhibition at 5000 µg/mL of N#CC1=C(N)Oc2c(ccc3c(N)cccc23)C1c1ccc(F)cc1 (stereo not shown)
Result: 20.1 mm

Ask: // lookup zone of inhibition at 5000 µg/mL for COc1ccc(N=Nc2cc3c(cc2O)OC(N)=C(C#N)C3c2ccc(F)cc2)cc1 (stereo not shown) [13b]
Result: 17.3 mm

Ask: // returns reported zone of inhibition at 5000 µg/mL for input N#CC1=C(N)Oc2c(ccc3c(N)cccc23)C1c1c(F)cc(F)cc1F (stereo not shown)
Result: 22.4 mm

Ask: Which measured zone of inhibition at 5000 µg/mL value corresponds to N#CC1=C(N)Oc2c(N)cc3ccccc3c2C1c1ccc(Cl)cc1 (stereo not shown) ?
Result: 26.9 mm

Ask: Would you mind telling me what zone of inhibition at 5000 µg/mL value was observed for C[C@@H]1[C@H](O)[C@@H](C)/C=C/C=C/C=C/C=C/C=C/C=C/C=C/[C@H](O[C@@H]2O[C@H](C)[C@@H](O)[C@H](N)[C@@H]2O)C[C@@H]2O[C@](O)(C[C@@H](O)C[C@@H](O)[C@H](O)CC[C@@H](O)C[C@@H](O)CC(=O)O[C@H]1C)C[C@H](O)[C@H]2C(=O)O [Amphotericin B, reference compound] ?
Result: 28.7 mm

Ask: Could you share which zone of inhibition at 5000 µg/mL value was measured for N#CC1=C(N)Oc2cc(O)c(N=Nc3cccc(O)c3)cc2C1c1ccccc1F (stereo not shown) [13k] ?
Result: 21.3 mm

Ask: Given COc1ccc(C2C(C#N)=C(N)Oc3c(N)cc4ccccc4c32)cc1 (stereo not shown) , state its recorded zone of inhibition at 5000 µg/mL.
Result: 25.8 mm

Ask: # query: zone of inhibition at 5000 µg/mL of entry Cc1ccc(C2C(C#N)=C(N)Oc3c(N)cc4ccccc4c32)cc1 (stereo not shown)
Result: 18.6 mm

Ask: Record request: zone of inhibition at 5000 µg/mL value, item Cc1ccc(N=Nc2cc3c(cc2O)OC(N)=C(C#N)C3c2ccc(F)cc2)cc1 (stereo not shown) [13a]
Result: 21.4 mm

Data provenance is paper PMC5547389.
